Provenance of the data: the supplement of paper PMC11482750

# System: S. flava pb1a-like
# Protocol Description: control-subtracted net OSN firing rate; higher = stronger neuronal activation
# Protocol Conditions: odorant dilution (vol/vol): 10^-4
# control-subtracted net OSN firing rate listing for each entry below
Form entry: value (spikes/s) — number only.

Value of control-subtracted net OSN firing rate reported for the compound CCCC(=O)OCC [ethyl butyrate] is 52.8

What the record says about CCC(C)N=C=S (configuration not stated) [sec-butyl isothiocyanate] : control-subtracted net OSN firing rate is 3.14

Noted for CC(C)CN=C=S [isobutyl isothiocyanate] : its control-subtracted net OSN firing rate reads 23.3

response.value for CCC/C=C/C=O [trans-2-hexenal] (field: control-subtracted net OSN firing rate) = 136
